- system: Rap guanine nucleotide exchange factor 3 (Homo sapiens) (UniProt O95398)
- Sequence (O95398 whole entry, looked up): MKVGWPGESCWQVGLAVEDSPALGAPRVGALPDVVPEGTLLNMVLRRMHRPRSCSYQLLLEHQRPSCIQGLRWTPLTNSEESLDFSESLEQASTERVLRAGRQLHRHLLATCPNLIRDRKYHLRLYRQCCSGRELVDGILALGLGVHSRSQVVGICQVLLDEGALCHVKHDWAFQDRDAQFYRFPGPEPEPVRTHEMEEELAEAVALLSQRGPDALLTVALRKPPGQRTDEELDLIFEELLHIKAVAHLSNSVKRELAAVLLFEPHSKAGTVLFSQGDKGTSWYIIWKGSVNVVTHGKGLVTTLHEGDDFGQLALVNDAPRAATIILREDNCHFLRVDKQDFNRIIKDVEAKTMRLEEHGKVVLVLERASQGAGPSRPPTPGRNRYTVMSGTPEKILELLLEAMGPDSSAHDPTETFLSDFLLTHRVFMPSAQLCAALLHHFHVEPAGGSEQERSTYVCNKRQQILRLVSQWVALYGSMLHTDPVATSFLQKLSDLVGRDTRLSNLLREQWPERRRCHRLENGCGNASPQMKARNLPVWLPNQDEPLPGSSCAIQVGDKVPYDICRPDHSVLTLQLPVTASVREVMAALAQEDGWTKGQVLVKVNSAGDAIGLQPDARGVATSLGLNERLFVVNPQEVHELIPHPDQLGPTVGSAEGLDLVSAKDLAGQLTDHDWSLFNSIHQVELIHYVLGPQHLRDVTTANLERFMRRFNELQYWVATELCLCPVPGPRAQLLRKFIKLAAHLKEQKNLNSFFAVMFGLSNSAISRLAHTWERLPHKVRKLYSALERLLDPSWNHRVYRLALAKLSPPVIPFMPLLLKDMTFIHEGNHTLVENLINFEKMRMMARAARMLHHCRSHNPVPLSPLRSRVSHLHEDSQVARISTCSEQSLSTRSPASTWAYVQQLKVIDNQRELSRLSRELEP
- protocol text: Confirmatory qHTS for antagonist of cAMP-regulated guanine nucleotide exchange factor 3 (EPAC1) (AID 1645880); note: nearly all actives have a fitted effect of over 55% in size
- recorded conditions: EPAC1 Rap1B-BODIPY-GDP exchange, fluorescence; series mostly up to 115 µM
Records with an inconclusive call do not appear. Active and inactive are the calls of the source. Calls come from the whole dose curve; as a rule, active = well fitted inhibition curve with a large enough effect; inconclusive = small, poorly fitted or top-dose-only effect; inactive = no such curve, though single readings can be large or run the other way.
Thanks in advance; please answer with one of these: TRUE (active), FALSE (inactive)

Would you please look over these solved cases?
CCCSc1nc2ccccc2c(=O)n1-c1ccccc1OC    FALSE
O=c1nc(/C=C/c2ccc(Cl)cc2Cl)cc(C(F)(F)F)[nH]1    TRUE
O=c1[nH]c(O)c(C=Nc2ccccc2Sc2ccccc2)c(=O)[nH]1    FALSE
COc1ccc(N2C(=O)/C(=C/c3ccco3)C(=O)NC2=S)cc1    TRUE
CCN(CC)c1ccc(N=Cc2c(O)n(CCc3ccc(OC)c(OC)c3)c(=O)[nH]c2=O)cc1    FALSE

Query: Outcome? Cc1cccc(-n2c(O)c(/C=C/C=Nc3ccccc3)c(=O)[nH]c2=O)c1
Reply: FALSE

Query: Outcome? O=[N+]([O-])c1ccc(N2CCOCC2)c2c1no[n+]2[O-]
Reply: TRUE

Query: Outcome? CCOC(=O)[C@]12Cc3ccsc3[C@H]1N(Cc1ccccc1)C(=O)c1ccccc12
Reply: FALSE

Query: Outcome? CCCCn1c(NS(=O)(=O)c2ccc(C)cc2)c(C(=O)OCC)c2nc3ccccc3nc21
Reply: TRUE

Query: Outcome? O=C(c1cc(Cl)cc(Cl)c1)N1Cc2ccccc2-n2nncc2C1
Reply: FALSE
